- method: Cytotoxicity in the HBV assay (dye uptake cell viability)
- Format: cell-based
- assay.conditions: human, HepG2-2.2.15 cells (stable line containing HBV ayw genome), peptide 10 micrograms per ml
Where a SMILES comes first, the peptide text is derived from it.

- molecule: "N=C(N)NCCC[C@H](NC(=O)CN)C(=O)NCC(=O)N[C@@H](CC(=O)O)C(=O)N[C@@H](CC(N)=O)C(=O)N1CCC[C@H]1C(=O)O [Gly-Arg-Gly-Asp-Asn-Pro, Gly-Arg-Gly-Asp-Asn-Pro-OH] (H-GRGDNP-OH)"
  unit.name: "%"
  viability at 144 h, 10 micrograms per ml: 95.2

Data provenance is patent US20100184704A1.
